Values compiled from paper PMC11243149.

Molecular target: GluA1 (Homo sapiens, UniProt P42261)
Construct: expressed in transfected cells; host or cells: HEK293T
Sequence (P42261 19-906 isoform P42261-2 limits assumed, species assumed): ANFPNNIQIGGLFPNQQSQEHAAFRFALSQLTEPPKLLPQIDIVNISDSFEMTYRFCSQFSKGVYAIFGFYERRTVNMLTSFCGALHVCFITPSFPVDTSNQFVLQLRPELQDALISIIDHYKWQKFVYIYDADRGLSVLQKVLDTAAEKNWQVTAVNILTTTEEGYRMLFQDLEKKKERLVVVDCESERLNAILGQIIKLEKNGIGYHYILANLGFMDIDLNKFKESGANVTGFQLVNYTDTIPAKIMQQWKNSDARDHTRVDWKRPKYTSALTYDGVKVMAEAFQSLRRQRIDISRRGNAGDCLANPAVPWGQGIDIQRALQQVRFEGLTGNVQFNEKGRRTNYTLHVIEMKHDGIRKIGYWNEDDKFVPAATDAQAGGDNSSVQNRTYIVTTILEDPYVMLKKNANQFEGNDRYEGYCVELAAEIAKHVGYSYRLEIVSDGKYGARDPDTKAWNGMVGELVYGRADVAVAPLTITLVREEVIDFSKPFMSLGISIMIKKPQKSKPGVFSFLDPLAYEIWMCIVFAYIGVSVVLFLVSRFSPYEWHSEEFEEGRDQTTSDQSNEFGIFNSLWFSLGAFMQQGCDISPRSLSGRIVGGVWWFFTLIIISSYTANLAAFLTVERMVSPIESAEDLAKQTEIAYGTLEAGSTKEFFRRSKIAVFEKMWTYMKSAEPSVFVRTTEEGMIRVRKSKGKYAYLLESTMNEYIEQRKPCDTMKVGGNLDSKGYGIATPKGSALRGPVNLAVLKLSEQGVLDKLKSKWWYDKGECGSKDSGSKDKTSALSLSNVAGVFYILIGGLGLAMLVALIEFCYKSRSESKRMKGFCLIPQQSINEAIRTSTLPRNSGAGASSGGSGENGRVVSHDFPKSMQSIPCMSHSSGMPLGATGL
Experiment: Whole-cell patch-clamp recordings of homomeric GluA1 AMPAR in transfected HEK293T cells
Type: cell-based
Conditions: GluA1; 10 mM glutamate + TC compound (12 µM optimal concentration); HEK293T, -60 mV, pH 7.4, 22 °C; mean ± SEM, n = 10
endpoint: Amplitude (glutamate plus TC compound) (pA)

Here are 3 molecules together with their reported answers.
In [3]: df
Out[3]:
                                   compound  measure_unit  endpoint_value
0  COc1ccc(-c2nc(C(=O)Nc3ccc(C(C)(C)C)cc3)cs2)cc1            pA             331
1  COc1ccc(-c2nc(C(=O)Nc3cc(OC)c(OC)c(OC)c3)cs2)cc1            pA             172
2  COc1ccc(-c2nc(C(=O)Nc3cc(OC)ccc3OC)cs2)cc1            pA             177

P = COc1ccc(-c2nc(C(=O)Nc3ccccc3)cs2)cc1
Q = COc1ccc(-c2nc(C(=O)Nc3ccc(OC)c(OC)c3)cs2)cc1
Consider P and Q . Which of these has its Amplitude (glutamate plus TC compound) at a higher number? Mark your answer with the label of the selected entry. P
(P: 287 pA, Q: 177 pA)
